Source: patent US20070172933A1

Test system: amidase
Experiment: Effect of metals and inhibitors (reagents and ions) on amidase activity, benzamide hydrolysis
Type: biochemical, Pseudonocardia thermophila
Settings: reagent 1 mM; preincubated 1 h at 22° C.; benzamide, 1 h at 70° C.
Binary call on Amidase activity in %: class 1 from 80% upward, class 0 beneath that.

[Ni+2]	class 0
NC(=O)CI [iodoacetamide]	class 1
[Ba+2]	class 1
[Zn+2]	class 1
[Ca+2]	class 1

// query Would you say CCCCCCCCCCCCOS(=O)(=O)[O-].[Na+] shows Amidase activity in % at minimum 80%?
// result class 1

// query Would you say [Mg+2] shows Amidase activity in % at minimum 80%?
// result class 1

// query Would you say O[C@@H](CS)[C@@H](O)CS shows Amidase activity in % at minimum 80%?
// result class 1

// query Would you say [Co+2] shows Amidase activity in % at minimum 80%?
// result class 0

// query Would you say [Mn+2] shows Amidase activity in % at minimum 80%?
// result class 1

// query Would you say O=C(O)CI [iodoacetate] shows Amidase activity in % at minimum 80%?
// result class 0

// query Would you say O=C(O)CN(CCN(CC(=O)O)CC(=O)O)CC(=O)O shows Amidase activity in % at minimum 80%?
// result class 1

// query Would you say [Cu+2] shows Amidase activity in % at minimum 80%?
// result class 0
